Reported GI50 is given for each of the following compounds.
- Test system: K562
- assay_comment: NCI tumour cell line growth inhibition, 48 h
Activity calls are given as the source filed them. No stated cut-off is given here; in the data, active = GI50 up to about 1.1 µM and inactive = higher.

compound: COc1ccc(/C=C/C(=O)C(C)(C)C)cc1OC
GI50: 36.7 µM (inactive)

compound: COc1ccccc1/N=N/C(=N\NC(=O)c1ccc(C)cc1)c1ccc(N(CCC#N)CCC#N)cc1C
GI50: 37.8 µM (inactive)

compound: O=C1C=C2CO[C@H]3OC[C@H](O)[C@@H]1[C@@H]23
GI50: 26.9 µM (inactive)

compound: COc1ccc(NC(=S)Nc2c(C)n(C)n(-c3ccccc3)c2=O)cc1
GI50: > 100 µM (inactive)

compound: COC(=O)/C(=C/CC(N=C(c1ccccc1)c1ccccc1)C(=O)OC)N=C(c1ccccc1)c1ccccc1 (stereo not given)
GI50: > 100 µM (inactive)

compound: O=c1cc(-c2ccccc2)oc2c(-c3cc(Cl)cc4c(=O)cc(-c5ccccc5)oc34)cc(Cl)cc12
GI50: 6.87 µM (inactive)

compound: CCC(C)C(NC(=O)C(CCCC[N+](=N)N)NC(=O)C(CCCC[N+](=N)N)NC(=O)c1ccc(OC)cc1)C(=O)NC(CCCC[N+](=N)N)C(=O)N1CCCC1C(=O)NC(CCCCN)C(=O)NC(CC(C)C)C(N)=O (stereo not given)
GI50: > 100 µM (inactive)

compound: CC#CC1C(OC(=O)c2ccccc2)CCCC1(CI)N=[N+]=[N-] (stereo not given)
GI50: 28.4 µM (inactive)

compound: O=C(O)c1nnsc1-c1ccc(-c2snnc2C(=O)O)cc1
GI50: 28.5 µM (inactive)

compound: CN1CCC(C(=O)NNc2ccccc2)CC1
GI50: 0.931 µM (active)

compound: Cc1cccc(C)c1NC(=O)C(=O)C(c1ccccc1Cl)S(=O)(=O)Cc1ccccc1Cl (stereo not given)
GI50: > 100 µM (inactive)

compound: O=C1OC(c2ccc([N+](=O)[O-])cc2)=N/C1=C\c1ccc(Cl)cc1
GI50: > 100 µM (inactive)

compound: CN(C)CCCNC(=O)c1c(O)c2ccccc2[nH]c1=O
GI50: > 100 µM (inactive)

compound: Cc1ccc2c(c1)C(C1Cc3c(C)cccc3C1=O)OC2=O (stereo not given)
GI50: > 100 µM (inactive)

compound: CCN(CC)c1ccc2nc3ccc(/N=N/c4c(O)ccc5ccccc45)cc3[n+](-c3ccccc3)c2c1
GI50: > 100 µM (inactive)

compound: CCCCCCCCCCCCCCCCCC(=O)NCC(COP(=O)(O)O)OCC (stereo not given)
GI50: > 100 µM (inactive)

compound: COc1ccc(/C(=N/NC(=O)NN)C(c2ccc(OC)cc2)C2(O)CNc3c(Cl)cc(Cl)cc32)cc1 (stereo not given)
GI50: > 100 µM (inactive)

compound: CC1(C)OC[C@@]2([C@@H]3CC[C@@H](C3)C2(C)C)N1O
GI50: > 100 µM (inactive)

compound: CC1(C2CCC3(C)C(C2)C3Sc2ccccc2)OCCO1 (stereo not given)
GI50: 17.1 µM (inactive)

compound: OCCCCn1cc(Cn2ncc3c(NCc4ccccc4)ncnc32)nn1
GI50: 44.3 µM (inactive)

###

- Test system: U-251
- assay_comment: NCI tumour cell line growth inhibition, 48 h
Activity calls are given as the source filed them. Cut-off read from the data, not from the text of the source: active = GI50 up to about 1.1 µM and inactive = higher.
Measured GI50, listed per entry.
measurement_kind: GI50

compound: C=CCCOC(=O)CO[N+](=O)[O-]
system_name: U-251
measurement_kind: GI50
result: > 100 µM (inactive)

compound: N#C/C(=C\c1cccc(Br)c1)c1nc2ccccc2c(=O)[nH]1
system_name: U-251
measurement_kind: GI50
result: 40.3 µM (inactive)

compound: CCCCCCCCCCCCCCCCOC[C@H](COC(c1ccccc1)(c1ccccc1)c1ccccc1)O[PH](=S)OC (stereo not given in full)
system_name: U-251
measurement_kind: GI50
result: > 100 µM (inactive)

compound: COC(=O)C(=O)C(C(=O)C(=O)Nc1cccc([N+](=O)[O-])c1)c1nc2ccc(Cl)cc2nc1O (stereo not given)
system_name: U-251
measurement_kind: GI50
result: > 100 µM (inactive)

compound: N=C(N)N/N=C/c1cnn(C(=N)N)c1
system_name: U-251
measurement_kind: GI50
result: 91 µM (inactive)

compound: Cc1ccc(S(=O)(=O)N/N=C2\CC3C4CCC3C2C4)cc1 (stereo not given)
system_name: U-251
measurement_kind: GI50
result: > 100 µM (inactive)

compound: Nc1nccc(Nc2ccc(S(N)(=O)=O)cc2)n1
system_name: U-251
measurement_kind: GI50
result: > 100 µM (inactive)

compound: Cn1c(CBr)nc2c1C(=O)c1nc(CBr)[nH]c(=O)c1C2=O
system_name: U-251
measurement_kind: GI50
result: > 100 µM (inactive)

compound: Cc1ccc(/C=C/C(=N/NC(=O)N/N=C(/C=C/c2ccc(C)cc2)C(C)(C)CN2CCCCC2)C(C)(C)CN2CCCCC2)cc1
system_name: U-251
measurement_kind: GI50
result: 1.48 µM (inactive)

compound: COC(=O)c1sc(C(=O)OC)c2c1CSC2
system_name: U-251
measurement_kind: GI50
result: 40.3 µM (inactive)

compound: CC(NC1=CC(=O)c2ncccc2C1=O)C(O)c1ccccc1 (stereo not given)
system_name: U-251
measurement_kind: GI50
result: 2.61 µM (inactive)

compound: COc1ccc(/C=C/C(=O)c2sc(Nc3ccc([N+](=O)[O-])cc3)nc2C)cc1
system_name: U-251
measurement_kind: GI50
result: 65.2 µM (inactive)

compound: CCOC(=O)Cn1c(=O)c2nc(SC)sc2n(-c2ccccc2)c1=O
system_name: U-251
measurement_kind: GI50
result: > 100 µM (inactive)

compound: COc1ccc(NC(=S)Nc2c(C)n(C)n(-c3ccccc3)c2=O)cc1
system_name: U-251
measurement_kind: GI50
result: > 100 µM (inactive)

compound: CC(=O)Nc1ccc(N2C(=O)CS(=O)(=O)C2c2cccc(Oc3ccccc3)c2)cc1 (stereo not given)
system_name: U-251
measurement_kind: GI50
result: 17.7 µM (inactive)

compound: OC12C3C4CC5C(C4[C@@H]1Br)C2[C@@](O)(c1c(F)c(F)c(F)c(F)c1F)C53 (stereo not given in full)
system_name: U-251
measurement_kind: GI50
result: 38 µM (inactive)

compound: COC1CC(n2ccc(=O)[nH]c2=O)OC1CO (stereo not given)
system_name: U-251
measurement_kind: GI50
result: > 100 µM (inactive)

compound: C[C@H]1COC2=C1C(=O)C(=O)c1c2ccc2c1CCCC2(C)C
system_name: U-251
measurement_kind: GI50
result: 2 µM (inactive)

compound: CC(=O)O[C@H]1C(=O)[C@@]2(C)[C@H]([C@H](OC(=O)c3ccncc3)[C@]3(O)C[C@H](OC(=O)[C@H](O)[C@@H](NC(=O)c4ccccc4)c4ccccc4)C(C)=C1C3(C)C)[C@]1(OC(C)=O)CO[C@@H]1C[C@@H]2O
system_name: U-251
measurement_kind: GI50
result: 2.34 µM (inactive)

compound: O=C1OCN(c2ccccc2)C12CCN(Cc1ccccc1)CC2
system_name: U-251
measurement_kind: GI50
result: 16.9 µM (inactive)
